- targetSystem: human TLR9 (Homo sapiens (Human), UniProt Q9NR96)
- Sequence (Q9NR96 26-1032): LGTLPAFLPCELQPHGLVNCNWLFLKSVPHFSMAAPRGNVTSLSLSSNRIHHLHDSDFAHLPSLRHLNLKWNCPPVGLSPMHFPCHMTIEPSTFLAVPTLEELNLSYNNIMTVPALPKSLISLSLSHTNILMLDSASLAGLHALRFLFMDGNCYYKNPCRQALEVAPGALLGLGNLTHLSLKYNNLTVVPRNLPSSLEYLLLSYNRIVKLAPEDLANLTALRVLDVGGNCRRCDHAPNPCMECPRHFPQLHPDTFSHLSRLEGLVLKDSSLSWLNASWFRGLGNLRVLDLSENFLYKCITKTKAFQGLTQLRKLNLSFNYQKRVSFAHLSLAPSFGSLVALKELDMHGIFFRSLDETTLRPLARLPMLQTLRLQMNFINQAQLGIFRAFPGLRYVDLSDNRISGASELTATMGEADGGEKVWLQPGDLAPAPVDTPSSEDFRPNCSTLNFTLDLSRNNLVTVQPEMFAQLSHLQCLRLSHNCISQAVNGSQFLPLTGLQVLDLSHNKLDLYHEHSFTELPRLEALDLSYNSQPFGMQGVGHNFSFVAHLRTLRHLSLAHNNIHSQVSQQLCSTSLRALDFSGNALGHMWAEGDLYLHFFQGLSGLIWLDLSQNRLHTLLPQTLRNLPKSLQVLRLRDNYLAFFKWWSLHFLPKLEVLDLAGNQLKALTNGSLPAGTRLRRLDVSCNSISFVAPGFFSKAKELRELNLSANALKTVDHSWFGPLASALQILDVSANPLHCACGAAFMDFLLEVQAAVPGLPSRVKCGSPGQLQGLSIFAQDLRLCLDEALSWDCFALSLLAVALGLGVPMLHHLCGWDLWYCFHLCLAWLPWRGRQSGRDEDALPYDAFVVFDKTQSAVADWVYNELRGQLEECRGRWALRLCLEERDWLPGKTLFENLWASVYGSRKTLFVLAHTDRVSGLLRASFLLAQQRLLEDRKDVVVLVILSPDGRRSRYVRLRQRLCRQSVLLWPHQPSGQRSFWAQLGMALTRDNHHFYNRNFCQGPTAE
- measurementProtocol: TLR9 inhibition reporter assay (HEK-Blue cells, SEAP reporter, ODN2006 stimulation);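 note: compounds tested over 0.05 nM to 50 µM, 22 h incubation, inhibition taken as SEAP signal drop from agonist plus DMSO wells toward a known inhibitor control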
- assaySetup: read-out: TLR9 IC50, HEK-Blue cells overexpressing human TLR9, ODN2006 5 nM
pIC50: −log10 of the molar value.
measureName: pIC50

Sample answers from the record:
[
  {
    "molecule": "Cc1cc(-c2[nH]c3ccc(C4CCN(C5CC(C)OC(C)C5)CC4)cc3c2C(C)C)ccn1 (stereo not shown) [Example 713]",
    "targetSystem": "human TLR9 (Homo sapiens (Human), UniProt Q9NR96)",
    "pIC50": 6.26
  },
  {
    "molecule": "Cc1cc(-c2[nH]c3ccc(C4CCN(CC5CCCCC5)CC4)cc3c2C(C)C)cc(C)n1",
    "targetSystem": "human TLR9 (Homo sapiens (Human), UniProt Q9NR96)",
    "pIC50": 5.14
  }
]

P. COc1cc(-c2[nH]c3ccc(C4CCNCC4)cc3c2C(C)C)cc(C2CC2)n1
Q. CCc1c(-c2ccnc(OC)c2)[nH]c2ccc(C3CCN(C4CCN(C5CC5)CC4)CC3)cc12
Please tell me which of the two, P or Q , has the higher reported pIC50 value. Lab note: record the label of whichever item you select. Q
(Q: 6.21, P: 5.56)

* * *

- targetSystem: human TLR7 (Homo sapiens (Human), UniProt Q9NYK1)
- Sequence (Q9NYK1 27-1049): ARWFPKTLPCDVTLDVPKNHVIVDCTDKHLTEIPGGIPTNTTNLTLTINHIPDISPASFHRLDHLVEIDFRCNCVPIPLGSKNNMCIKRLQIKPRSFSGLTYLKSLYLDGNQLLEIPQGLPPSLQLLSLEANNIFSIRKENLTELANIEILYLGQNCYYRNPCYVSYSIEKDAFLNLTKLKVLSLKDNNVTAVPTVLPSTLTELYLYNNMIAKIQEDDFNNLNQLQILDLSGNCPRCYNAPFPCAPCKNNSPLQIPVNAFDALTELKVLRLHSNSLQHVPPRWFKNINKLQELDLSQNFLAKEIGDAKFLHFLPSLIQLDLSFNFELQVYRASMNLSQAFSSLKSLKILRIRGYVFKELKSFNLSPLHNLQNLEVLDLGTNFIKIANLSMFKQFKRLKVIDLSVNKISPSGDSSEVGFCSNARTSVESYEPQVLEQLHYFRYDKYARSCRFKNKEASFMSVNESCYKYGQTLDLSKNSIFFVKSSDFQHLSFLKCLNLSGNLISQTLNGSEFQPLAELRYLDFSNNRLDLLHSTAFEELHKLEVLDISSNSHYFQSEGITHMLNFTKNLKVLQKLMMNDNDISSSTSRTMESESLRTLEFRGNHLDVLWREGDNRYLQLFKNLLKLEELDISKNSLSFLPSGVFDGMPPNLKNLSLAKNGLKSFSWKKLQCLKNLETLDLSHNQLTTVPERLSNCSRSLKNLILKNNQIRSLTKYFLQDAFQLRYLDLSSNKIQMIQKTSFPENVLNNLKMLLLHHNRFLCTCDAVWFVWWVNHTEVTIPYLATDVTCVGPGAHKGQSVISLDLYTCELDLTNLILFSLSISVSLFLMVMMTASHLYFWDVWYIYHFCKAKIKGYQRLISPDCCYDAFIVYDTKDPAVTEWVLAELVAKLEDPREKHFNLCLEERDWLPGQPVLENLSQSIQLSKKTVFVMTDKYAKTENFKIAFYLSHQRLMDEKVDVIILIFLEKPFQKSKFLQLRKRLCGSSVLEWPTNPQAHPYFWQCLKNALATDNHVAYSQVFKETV
- measurementProtocol: TLR7 inhibition reporter assay (HEK-Blue cells, SEAP reporter, gardiquimod stimulation)
- Type: cell-based
- assaySetup: HEK-Blue cells overexpressing human TLR7, gardiquimod 7.5 μM
measureName: IC50 (nM)

[
  {
    "compound": "CCOc1cc(-c2[nH]c3ccc(C4CCN(C5CCN(CC(C)C)CC5)CC4)cc3c2CC)ccn1",
    "unitTag": "nM",
    "recordedValue": 7220
  },
  {
    "compound": "Cc1cc(-c2[nH]c3ccc(C4CCN(C5CCCOC5)CC4)cc3c2C(C)C)c(C)cn1 (stereo not drawn)",
    "unitTag": "nM",
    "recordedValue": 14.2
  },
  {
    "compound": "Cc1cc(-c2[nH]c3ccc(C4CCN(C(=O)CN5CC(F)(F)C[C@H]5CO)CC4)cc3c2C(C)C)cc(C)n1",
    "unitTag": "nM",
    "recordedValue": 14.6
  }
]

P. Cc1cc(-c2[nH]c3ccc(C4CCN(CC(=O)NCC(F)(F)F)CC4)cc3c2C(C)C)cc(C)n1
Q. Cc1cc(-c2[nH]c3ccc(C4CCN(CC5COC5)CC4)cc3c2C(C)C)cc(C)n1
Smaller IC50 value, P vs Q ? Lab note: record the label of whichever item you select. Q

* * *

- targetSystem: human TLR8 (Homo sapiens (Human))
- measurementProtocol: TLR8 inhibition reporter assay (HEK-Blue cells, SEAP reporter, R848 stimulation)
- assaySetup: read-out: TLR8 IC50, HEK-Blue cells, R848 15.9 μM
measureName: IC50 (nM)

P. Cc1cc(-c2[nH]c3ccc(C4CCN(C(=O)C(=O)N(C)C)CC4)cc3c2C(C)C)ccn1 [Example 878]
Q. Cc1cc(-c2[nH]c3ccc(C4CCN(Cc5cnc[nH]5)CC4)cc3c2C(C)C)c(N)cn1 [Example 823]
Please tell me which of the two, P or Q , has the higher reported IC50 value. Lab note: record the label of whichever item you select. P
(P: 175 nM, Q: 7.6 nM)

* * *

- targetSystem: human TLR8 (Homo sapiens (Human), UniProt Q9NR97)
- Sequence (Q9NR97 27-1041): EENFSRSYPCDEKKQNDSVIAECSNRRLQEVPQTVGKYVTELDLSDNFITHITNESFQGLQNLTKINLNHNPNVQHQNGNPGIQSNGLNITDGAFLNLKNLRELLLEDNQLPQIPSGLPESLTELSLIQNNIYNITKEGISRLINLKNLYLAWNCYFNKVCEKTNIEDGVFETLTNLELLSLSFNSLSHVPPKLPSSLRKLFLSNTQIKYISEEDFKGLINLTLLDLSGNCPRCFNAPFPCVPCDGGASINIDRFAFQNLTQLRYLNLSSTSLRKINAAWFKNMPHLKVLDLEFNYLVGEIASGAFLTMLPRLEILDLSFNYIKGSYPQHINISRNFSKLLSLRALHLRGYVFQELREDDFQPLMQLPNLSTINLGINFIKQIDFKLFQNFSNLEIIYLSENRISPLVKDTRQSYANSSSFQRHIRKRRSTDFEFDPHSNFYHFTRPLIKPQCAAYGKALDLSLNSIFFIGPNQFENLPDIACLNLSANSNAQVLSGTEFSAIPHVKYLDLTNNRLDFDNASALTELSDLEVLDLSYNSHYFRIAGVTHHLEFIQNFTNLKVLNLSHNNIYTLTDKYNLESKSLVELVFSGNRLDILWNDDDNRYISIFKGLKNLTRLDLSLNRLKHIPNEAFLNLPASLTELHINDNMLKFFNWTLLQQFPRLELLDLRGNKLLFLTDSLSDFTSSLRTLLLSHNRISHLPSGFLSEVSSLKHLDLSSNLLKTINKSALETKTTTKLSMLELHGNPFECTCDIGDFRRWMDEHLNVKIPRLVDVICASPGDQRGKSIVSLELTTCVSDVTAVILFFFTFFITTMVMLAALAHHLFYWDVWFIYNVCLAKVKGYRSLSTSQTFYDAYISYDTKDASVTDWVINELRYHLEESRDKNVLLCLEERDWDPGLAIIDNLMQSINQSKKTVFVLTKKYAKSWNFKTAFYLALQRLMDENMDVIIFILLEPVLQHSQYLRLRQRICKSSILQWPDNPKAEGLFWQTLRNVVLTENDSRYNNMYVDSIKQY
- measurementProtocol: TLR8 inhibition reporter assay (HEK-Blue cells, SEAP reporter, R848 stimulation);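 note: compounds tested from 0.05 nM to 50 µM, 22 h at 37 °C, SEAP measured with HEK-Blue Detection, inhibition relative to agonist plus DMSO versus a known inhibitor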
- assaySetup: read-out: TLR8 IC50, HEK-Blue cells overexpressing human TLR8, R848 15.9 μM
pIC50: −log10 of the molar value.
measureName: pIC50

[
  {
    "compound": "Cc1cc(-c2[nH]c3ccc(C4CCN(C5CCS(=O)(=O)CC5)CC4)cc3c2C(C)C)cc(C)n1 [Example 459]",
    "targetSystem": "human TLR8 (Homo sapiens (Human), UniProt Q9NR97)",
    "pIC50": 8.44
  }
]

P. Cc1cc(-c2[nH]c3ccc(C4CCN(C5CCOC(C)(C)C5)CC4)cc3c2C(C)C)ccn1 (stereo not shown) [Example 719]
Q. CCc1c(-c2ccnc(C)c2)[nH]c2ccc(C3CCN(C(C)C)CC3)cc12 [Example 672]
Please tell me which of the two, P or Q , has the higher reported pIC50 value. Lab note: record the label of whichever item you select. P
(P: 8.28, Q: 6.93)

I. CCCS(=O)(=O)N1CCC(c2ccc3[nH]c(-c4ccnc(C)c4)c(C(C)C)c3c2)CC1 [Example 545]
II. Cc1cc(-c2[nH]c3ccc(C4CCN(C(=O)Cn5ccccc5=O)CC4)cc3c2C(C)C)cc(C)n1 [Example 157]
Smaller pIC50 value, I vs II ? Lab note: record the label of whichever item you select. I
(I: 6.58, II: 7.18)

I. CO[C@@H]1C[C@H](CO)N(C(=O)CN2CCC(c3ccc4[nH]c(-c5cc(C)nc(C)c5)c(C(C)C)c4c3)CC2)C1 [Example 292]
II. Cc1cc(-c2[nH]c3ccc(C4CCN(CC(=O)N(C)C)CC4)cc3c2C(C)C)c(C)cn1 [Example 642]
Please tell me which of the two, I or II , has the higher reported pIC50 value. Lab note: record the label of whichever item you select. II

* * *

- targetSystem: human TLR9 (Homo sapiens (Human))
- measurementProtocol: TLR9 inhibition reporter assay (HEK-Blue cells, SEAP reporter, ODN2006 stimulation)
- assaySetup: TLR9 IC50, HEK-Blue cells overexpressing human TLR9, ODN2006 5 nM
pIC50: −log10 of the molar value.
measureName: pIC50

Sample answers from the record:
[
  {
    "compound": "Cc1cc(-c2[nH]c3ccc(C4CCN(C(=O)CNCC(C)O)CC4)cc3c2C(C)C)cc(C)n1 (stereo not shown) [Example 367]",
    "recordedValue": 5.72
  },
  {
    "compound": "Cc1cc(-c2[nH]c3ccc(C4CCN(C(=O)C5CC(=O)N(C)C5)CC4)cc3c2C(C)C)cc(C)n1 (stereo not shown) [Example 102]",
    "recordedValue": 4.44
  },
  {
    "compound": "Cc1cc(-c2[nH]c3ccc(C4CCN(C(=O)CNC5(C)CCOCC5)CC4)cc3c2C(C)C)cc(C)n1 [Example 374]",
    "recordedValue": 6.26
  },
  {
    "compound": "Cc1cc(-c2[nH]c3ccc(C4CCN(Cc5cncnc5)CC4)cc3c2C(C)C)cc(C)n1 [Example 434]",
    "recordedValue": 6.12
  },
  {
    "compound": "Cc1cc(-c2[nH]c3ccc(C4CCN(C(=O)C5CCN(C)CC5)CC4)cc3c2C(C)C)cc(C)n1 [Example 110]",
    "recordedValue": 6.41
  }
]

I. Cc1cc(-c2[nH]c3ccc(C4CCN(CC(=O)NCC(C)(C)C)CC4)cc3c2C(C)C)cc(C)n1 [Example 219]
II. CCc1c(-c2ccnc(C)c2)[nH]c2ccc(C3CCN(C[C@@H]4CCCN4)CC3)cc12 [Example 740]
Smaller pIC50 value, I vs II ? Lab note: record the label of whichever item you select. I

* * *

- targetSystem: UniProtKB Q9NR97
- measurementProtocol: TLR8 inhibition reporter assay (HEK-Blue cells, SEAP reporter, R848 stimulation)
- assaySetup: read-out: TLR8 IC50, HEK-Blue cells overexpressing human TLR8, R848 15.9 μM
pIC50: −log10 of the molar value.
measureName: pIC50

Sample answers from the record:
[
  {
    "molecule": "Cc1cc(-c2[nH]c3ccc(C4CCN(CC(=O)N5CCC6(CC5)COC6)CC4)cc3c2C(C)C)cc(C)n1",
    "pIC50": 7.85
  },
  {
    "molecule": "Cc1cc(-c2[nH]c3ccc(C4CCN(C(=O)C5CCN(C)C(=O)C5)CC4)cc3c2C(C)C)ccn1 (stereo not shown)",
    "pIC50": 6.73
  },
  {
    "molecule": "Cc1cc(-c2[nH]c3ccc(C4CCN(CC(=O)N[C@H]5CC[C@H](O)CC5)CC4)cc3c2C(C)C)cc(C)n1",
    "pIC50": 8.38
  },
  {
    "molecule": "Cc1cc(-c2[nH]c3ccc(C4CCN(C(=O)CN5CC[C@@H](O)C5)CC4)cc3c2C(C)C)cc(C)n1",
    "pIC50": 8.19
  },
  {
    "molecule": "Cc1cc(-c2[nH]c3ccc(C4CCNCC4)cc3c2C(C)C)cc(N)n1",
    "pIC50": 7.40
  },
  {
    "molecule": "Cc1cc(-c2[nH]c3ccc(C4CCN(Cc5ccn(C)n5)CC4)cc3c2C(C)C)c(C)cn1",
    "pIC50": 9.10
  }
]

a. CC(C)c1c(-c2ccnc(C(C)(C)O)c2)[nH]c2ccc(C3CCNCC3)cc12
b. Cc1cc(-c2[nH]c3ccc(C4CCN(Cc5ncon5)CC4)cc3c2C(C)C)cc(C)n1
c. Cc1cc(-c2[nH]c3ccc(C4CCN(C(=O)CN5CCOCC5)CC4)cc3c2C(C)C)cc(C)n1
d. Cc1cc(-c2[nH]c3ccc(C4CCN(Cc5cn[nH]c5)CC4)cc3c2C(C)C)cc(C)n1
e. CCc1c(-c2cc(F)nc(F)c2)[nH]c2ccc(C3CCN(C4CCN(CC(C)C)CC4)CC3)cc12
List the 5 entries from lowest pIC50 to highest pIC50 value. Answer format: the labels, in the requested order. a, e, c, b, d

I. Cc1cc(-c2[nH]c3ccc(C4CCN(CC(=O)N5CCCC(F)C5)CC4)cc3c2C(C)C)cc(C)n1 (stereo not shown)
II. Cc1cc(-c2[nH]c3ccc(C4CCN(Cc5ccn[nH]5)CC4)cc3c2C(C)C)c(F)cn1
III. Cc1cc(-c2[nH]c3ccc(C4CCN(C)CC4)cc3c2C(C)C)c(F)cn1
IV. Cc1cc(-c2[nH]c3ccc(C4CCN(CC(=O)N(CCO)Cc5ccc(F)cc5)CC4)cc3c2C(C)C)cc(C)n1
Hey, quick one: sort these by pIC50, largest value first please. Answer format: the labels, in the requested order. II, III, I, IV
(II: 8.77, III: 8.29, I: 7.81, IV: 7.15)

P. Cc1cc(-c2[nH]c3ccc(C4CCN(C(=O)CN5CCCC5C)CC4)cc3c2C(C)C)cc(C)n1 (stereo not shown)
Q. Cc1cc(-c2[nH]c3ccc(C4CCN(C(=O)C5CC(=O)N(C)C5)CC4)cc3c2C(C)C)cc(C2CC2)n1 (stereo not shown)
Smaller pIC50 value, P vs Q ? Lab note: record the label of whichever item you select. Q
(Q: 6.46, P: 7.96)

A. COc1ncc(CN2CCC(c3ccc4[nH]c(-c5ccnc(C)c5F)c(C(C)C)c4c3)CC2)cn1
B. Cc1cc(-c2[nH]c3ccc(C4CCN(C(=O)CNC5CCOC5)CC4)cc3c2C(C)C)cc(C)n1 (stereo not shown)
C. Cc1cc(-c2[nH]c3ccc(C4CCN(C(=O)CN(C)CCCO)CC4)cc3c2C(C)C)cc(C)n1
D. Cc1cc(-c2[nH]c3ccc(C4CCN(C(=O)[C@@H](N)CCCN)CC4)cc3c2C(C)C)ccn1
E. Cc1cc(-c2[nH]c3ccc(C4CCN(C5CCOC5)CC4)cc3c2C(C)C)c(F)cn1 (stereo not shown)
Hey, quick one: sort these by pIC50, top value first please. Answer format: the labels, in the requested order. A, E, B, C, D
